Target: T1, recombinant human DLL3 protein (Kactus Biosystems, Cat. No. DLL-HM103) (human, UniProt Q9NYJ7 27-492, limits assumed)
T1 construct: Bought protein coated on the ELISA plate; also called Human DLL3 proteins
T1 sequence (looked up): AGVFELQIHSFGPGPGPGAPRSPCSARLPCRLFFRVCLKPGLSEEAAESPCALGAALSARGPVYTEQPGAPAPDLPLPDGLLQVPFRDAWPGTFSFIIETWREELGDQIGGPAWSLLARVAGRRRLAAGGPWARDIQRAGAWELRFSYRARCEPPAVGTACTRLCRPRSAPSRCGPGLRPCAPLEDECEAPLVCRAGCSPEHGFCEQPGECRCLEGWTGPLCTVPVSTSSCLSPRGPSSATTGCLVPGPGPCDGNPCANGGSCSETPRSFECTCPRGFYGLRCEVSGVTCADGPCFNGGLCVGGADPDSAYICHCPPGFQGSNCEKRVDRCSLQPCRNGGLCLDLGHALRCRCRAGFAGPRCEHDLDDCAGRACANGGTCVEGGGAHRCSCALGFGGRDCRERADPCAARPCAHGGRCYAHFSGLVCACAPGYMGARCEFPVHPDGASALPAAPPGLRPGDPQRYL
Assay: ELISA, human DLL3 coated at 0.1 µg/mL, absorbance at 450 nm
property: Emax
Answer with a number only.

See these solved cases before continuing.
{"columns": ["binder", "Emax"],
 "data": [
  ["D-ADC12-1-8 (antibody, human IgG1, kappa, L234A L235A, V domains shown, linker-drug LD12-1 (exatecan payload) conjugated to sulfhydryls of reduced interchain disulfide cysteines; average DAR 8.0 per antibody, Antibody-drug conjugate: 33B + LD12-1, DAR 8.0) VH: QVQLVQSGAEVKKPGASVKVSCKASGYTFTDYYMKWVRQAPGQRLEWMGAFNLNNGDTFYNQKFKGRVTITRDTSASTAYMELSSLRSEDTAVYYCARDVYGYGDYWGQGTSVTVSS VL: DIVMTQSPDSLAVSLGERATINCRASKSVSTSGYSYMHWYQQKPGQPPKLLIYLASNLDSGVPDRFSGSGSGTDFTLTISSLQAEDVAVYYCQHSRELPYTFGGGTKLEIKR", 2.6],
  ["D-ADC55-1-8 (antibody, human IgG1, kappa, L234A L235A, V domains shown, linker-drug LD55-1 (exatecan payload) conjugated to sulfhydryls of reduced interchain disulfide cysteines; average DAR 8.0 per antibody, Antibody-drug conjugate: 33B + LD55-1, DAR 8.0) VH: QVQLVQSGAEVKKPGASVKVSCKASGYTFTDYYMKWVRQAPGQRLEWMGAFNLNNGDTFYNQKFKGRVTITRDTSASTAYMELSSLRSEDTAVYYCARDVYGYGDYWGQGTSVTVSS VL: DIVMTQSPDSLAVSLGERATINCRASKSVSTSGYSYMHWYQQKPGQPPKLLIYLASNLDSGVPDRFSGSGSGTDFTLTISSLQAEDVAVYYCQHSRELPYTFGGGTKLEIKR", 2.5],
  ["D-ADC2-1-8 (antibody, human IgG1, kappa, L234A L235A, V domains shown, linker-drug LD2-1 (exatecan payload) conjugated to sulfhydryls of reduced interchain disulfide cysteines; average DAR 8.0 per antibody, Antibody-drug conjugate: 33B + LD2-1, DAR 8.0) VH: QVQLVQSGAEVKKPGASVKVSCKASGYTFTDYYMKWVRQAPGQRLEWMGAFNLNNGDTFYNQKFKGRVTITRDTSASTAYMELSSLRSEDTAVYYCARDVYGYGDYWGQGTSVTVSS VL: DIVMTQSPDSLAVSLGERATINCRASKSVSTSGYSYMHWYQQKPGQPPKLLIYLASNLDSGVPDRFSGSGSGTDFTLTISSLQAEDVAVYYCQHSRELPYTFGGGTKLEIKR", 2.5],
  ["33B (antibody, human IgG1, kappa, L234A L235A, V domains shown, Naked anti-DLL3 antibody) VH: QVQLVQSGAEVKKPGASVKVSCKASGYTFTDYYMKWVRQAPGQRLEWMGAFNLNNGDTFYNQKFKGRVTITRDTSASTAYMELSSLRSEDTAVYYCARDVYGYGDYWGQGTSVTVSS VL: DIVMTQSPDSLAVSLGERATINCRASKSVSTSGYSYMHWYQQKPGQPPKLLIYLASNLDSGVPDRFSGSGSGTDFTLTISSLQAEDVAVYYCQHSRELPYTFGGGTKLEIKR", 2.5]
]}

For the next question, use this binder.
Data request: Would you mind telling me what Emax value was observed for D-BATADC (antibody, human IgG1, kappa, L234A L235A, V domains shown, control linker-drug BATLD conjugated to the antibody; average DAR 7.7 per antibody) VH: QVQLVQSGAEVKKPGASVKVSCKASGYTFTDYYMKWVRQAPGQRLEWMGAFNLNNGDTFYNQKFKGRVTITRDTSASTAYMELSSLRSEDTAVYYCARDVYGYGDYWGQGTSVTVSS VL: DIVMTQSPDSLAVSLGERATINCRASKSVSTSGYSYMHWYQQKPGQPPKLLIYLASNLDSGVPDRFSGSGSGTDFTLTISSLQAEDVAVYYCQHSRELPYTFGGGTKLEIKR ?
Data returned: 2.6
